B1: 1ZHC (parent)
chain: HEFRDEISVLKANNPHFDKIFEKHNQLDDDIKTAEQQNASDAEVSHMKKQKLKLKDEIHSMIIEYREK

variants of: B1; experiment: folding stability dG (cDNA display proteolysis); higher = more stable; conditions: PBS, room temperature
Short version: folding stability dG at least 0.8 kcal/mol is true (1), less is false (0).

Challenge: Textbook exercise: given the entry E6C , state whether its folding stability dG is greater than or equal to 0.8 kcal/mol.
Response given: true (1)

Challenge: Same read-out for S8R ?
Response given: true (1)
